Where do these numbers come from? They come from BindingDB's records for doi:10.1016/j.bmcl.2009.01.098.

Reported Kd values are given for each entry in this list.
- target entity: Muscarinic acetylcholine receptor M3 (Homo sapiens, UniProt P20309)
- Sequence (P20309 whole entry): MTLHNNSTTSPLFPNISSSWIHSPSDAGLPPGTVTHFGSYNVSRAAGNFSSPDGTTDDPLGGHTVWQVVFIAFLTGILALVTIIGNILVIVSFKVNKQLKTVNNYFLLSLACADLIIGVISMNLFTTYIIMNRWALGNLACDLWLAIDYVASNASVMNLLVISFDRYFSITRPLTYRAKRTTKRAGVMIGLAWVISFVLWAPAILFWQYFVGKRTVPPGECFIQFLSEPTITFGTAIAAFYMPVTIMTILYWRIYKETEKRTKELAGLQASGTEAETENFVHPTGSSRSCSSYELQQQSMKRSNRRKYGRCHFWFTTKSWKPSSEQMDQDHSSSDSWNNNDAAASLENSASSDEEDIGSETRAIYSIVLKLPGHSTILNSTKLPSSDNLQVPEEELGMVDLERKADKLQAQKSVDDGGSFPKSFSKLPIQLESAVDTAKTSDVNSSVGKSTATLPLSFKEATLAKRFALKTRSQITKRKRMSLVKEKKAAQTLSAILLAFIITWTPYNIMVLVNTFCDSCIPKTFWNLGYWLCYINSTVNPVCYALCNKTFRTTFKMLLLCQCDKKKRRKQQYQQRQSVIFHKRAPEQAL
- method description: Antagonist activity at human recombinant muscarinic M3 receptor expressed in CHO cells assessed as inhibition of acetylcholine-induced calcium mobilization by FLIPR based single concentration kinetic assay
Numbers only here, please. The scale is nM.

>>> df
                                   molecule  display_unit  observed
0  CC1CN(Cc2cccc(-c3cc(CNC(=O)c4cccc(CN(C)CCCN(C)C)c4)ccc3F)c2)CCN1 (stereo not drawn)            nM       0.2

The recorded Kd for entry CC1CN(Cc2cccc(-c3cc(CNC(=O)c4cccc(CN5CCN(C=O)CC5)c4)ccc3F)c2)CCN1 (stereo not drawn) equals 0.0794

Measured Kd of CC1CN(Cc2cccc(-c3cc(CNC(=O)c4cccc(CN5CCOCC5)c4)ccc3F)c2)CCN1 (stereo not drawn) : 0.126

Sure, the documented Kd for CC1CN(Cc2cccc(-c3cc(CNC(=O)c4cccc(CN5CCCCC5)c4)ccc3F)c2)CCN1 (stereo not drawn) is 0.631

# Kd of CC1CN(Cc2cccc(-c3cc(CNC(=O)c4cccc(CN5CCN(C)CC5)c4)ccc3F)c2)CCN1 (stereo not drawn) = 0.0316

// CC1CN(Cc2cccc(-c3cc(CNC(=O)c4cccc(CN(C)C)c4)ccc3F)c2)CCN1 (stereo not drawn) : Kd value = 3.16

The molecule listed as CC1CN(Cc2cccc(-c3cc(CNC(=O)c4cccc(CN5CCCN(C)CC5)c4)ccc3F)c2)CCN1 (stereo not drawn) shows Kd equal to 0.251

For CC1CN(Cc2cccc(-c3cc(CNC(=O)c4cccc(CN5CCN(CCCO)CC5)c4)ccc3F)c2)CCN1 (stereo not drawn) the molecule record lists Kd as 0.0631
